Assign pIC50 to each entry below.
Biological target: laminin/nidogen interaction (laminin P1, recombinantly produced human nidogen) (Homo sapiens, UniProt P14543)
Construct: made in house; host or cells: HEK-293
Sequence (P14543 29-1247): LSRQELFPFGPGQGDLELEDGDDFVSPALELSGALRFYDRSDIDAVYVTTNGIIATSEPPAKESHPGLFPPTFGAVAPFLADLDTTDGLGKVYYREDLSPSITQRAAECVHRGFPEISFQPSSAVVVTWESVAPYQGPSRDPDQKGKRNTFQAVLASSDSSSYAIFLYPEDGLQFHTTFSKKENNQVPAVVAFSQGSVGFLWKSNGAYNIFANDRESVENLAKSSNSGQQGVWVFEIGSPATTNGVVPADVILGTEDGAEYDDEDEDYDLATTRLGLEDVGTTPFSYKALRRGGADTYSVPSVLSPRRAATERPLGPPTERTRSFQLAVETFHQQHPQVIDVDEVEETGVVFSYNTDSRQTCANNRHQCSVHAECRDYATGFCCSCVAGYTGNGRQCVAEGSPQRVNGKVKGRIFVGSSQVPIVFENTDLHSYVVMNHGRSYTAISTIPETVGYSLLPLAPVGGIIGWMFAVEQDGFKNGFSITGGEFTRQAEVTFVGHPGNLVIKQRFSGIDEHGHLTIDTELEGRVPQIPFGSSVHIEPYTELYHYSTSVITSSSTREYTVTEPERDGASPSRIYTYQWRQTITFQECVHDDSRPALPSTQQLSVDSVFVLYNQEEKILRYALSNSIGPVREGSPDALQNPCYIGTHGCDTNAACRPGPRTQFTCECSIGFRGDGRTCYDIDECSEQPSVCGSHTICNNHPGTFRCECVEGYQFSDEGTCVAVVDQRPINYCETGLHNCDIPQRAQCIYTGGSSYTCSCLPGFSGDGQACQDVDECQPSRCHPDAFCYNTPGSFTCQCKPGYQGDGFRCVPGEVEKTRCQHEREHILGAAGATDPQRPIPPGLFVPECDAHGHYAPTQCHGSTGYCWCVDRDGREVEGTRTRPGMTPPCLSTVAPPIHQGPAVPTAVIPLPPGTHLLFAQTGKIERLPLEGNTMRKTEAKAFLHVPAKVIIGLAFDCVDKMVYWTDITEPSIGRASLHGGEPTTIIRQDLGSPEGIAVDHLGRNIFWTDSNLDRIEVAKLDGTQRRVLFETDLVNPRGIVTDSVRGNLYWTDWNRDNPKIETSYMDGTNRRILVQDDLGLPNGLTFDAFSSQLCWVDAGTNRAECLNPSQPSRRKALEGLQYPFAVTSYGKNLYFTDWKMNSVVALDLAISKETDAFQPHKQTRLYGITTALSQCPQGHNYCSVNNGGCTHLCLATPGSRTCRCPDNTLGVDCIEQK
Experiment: HTS screening assay (time-resolved fluorescence), inhibition of laminin/nidogen binding
Details: results table 1.3, synthesized compounds 1 to 43; read-out: IC50
Experimental: 5) The compound stocks were preincubated with nidogen (10 μl compound stock to 90 μl nidogen solution) and the assay was performed as described in the attached protocol, yielding a final screening concentration of 2.7 μM per compound. […] The complex of nidogen and specifically bound antibodies was, after washing twice with PBS/0.04% Tween, detected by adding anti-chicken IgY-biotin (75 μl of a 1:2500 dilution; Promega, Madison, Wis. 53711, 608-274-4330). […]
Starred links: 1 amine or outer side, 2 acyl side, 3 side chain; linkers in the order of their positions; H or OH if unused. Non-standard residues stand in square brackets, D forms with d. Residues, ends and D or L forms follow the SMILES beside them. *: point of attachment. 2Nal = N[C@@H](Cc1ccc2ccccc2c1)C(=O)O; hPhe = N[C@@H](CCc1ccccc1)C(=O)O; NH(3-hydroxypropyl) = OCCCN*; Suc = O=C(CCC(=O)[*:2])[*:1]
# log scale: pIC50 equals minus log10 of the concentration in mol/L

Incoming: Which pIC50 value belongs to CC(C)[C@H](NC(=O)[C@H](CO)NC(=O)[C@H](CC(N)=O)NC(=O)[C@H](CCc1ccccc1)NC(=O)[C@@H](N)CC(=O)O)C(=O)NCC(=O)NCCCO [Compound 20] (H-D[hPhe]NSVG-{NH(3-hydroxypropyl)}) ?
Outgoing: 4.49

Incoming: Return reported pIC50; argument: CC(C)[C@H](NC(=O)[C@H](C)NC(=O)[C@H](CC(N)=O)NC(=O)[C@H](Cc1ccccc1)NC(=O)[C@@H](N)CC(=O)O)C(=O)NCC(=O)NCCCO [Compound 11] (H-DFNAVG-{NH(3-hydroxypropyl)})
Outgoing: 5.47

Incoming: Data request, read-out pIC50, for CC(C)[C@H](NC(=O)[C@H](C)NC(=O)[C@H](CC(N)=O)NC(=O)[C@H](Cc1ccc(O)cc1)NC(=O)[C@@H](N)CC(=O)O)C(=O)NCC(=O)NCCCO [Compound 12] (H-DYNAVG-{NH(3-hydroxypropyl)})
Outgoing: 5.42

Incoming: Request the reported pIC50 associated with CC(C)[C@H](NC(=O)CNC(=O)[C@H](CC(N)=O)NC(=O)[C@H](Cc1ccc2ccccc2c1)NC(=O)CCC(=O)O)C(N)=O [Compound 33] (Suc-[2Nal]NGV-NH2)
Outgoing: 6.14

Incoming: Reported pIC50, compound CC(C)C(NC(=O)[C@H](C)NC(=O)[C@H](CC(N)=O)NC(=O)[C@H](Cc1ccc2ccccc2c1)NC(=O)CCC(=O)O)C(C)C [Compound 39] : ____
Outgoing: 5.82

---

target: laminin/nidogen interaction (laminin P1, recombinantly produced human nidogen) (Homo sapiens, UniProt P14543); construct: made in house; host or cells: HEK-293; assay: HTS screening assay (time-resolved fluorescence), inhibition of laminin/nidogen binding; conditions: results table 1.3, synthesized compounds 1 to 43; read-out: IC50
Starred links: 1 amine or outer side, 2 acyl side, 3 side chain; linkers in the order of their positions; H or OH if unused. Non-standard residues stand in square brackets, D forms with d. Residues, ends and D or L forms follow the SMILES beside them. *: point of attachment. X2 = O=C([C@@H]1[C@H](c2ccccc2)CCN1[*:1])[*:2]; Bip = N[C@@H](Cc1ccc(-c2ccccc2)cc1)C(=O)O; 2Nal = N[C@@H](Cc1ccc2ccccc2c1)C(=O)O; d2Nal = N[C@H](Cc1ccc2ccccc2c1)C(=O)O; 3Pal = N[C@@H](Cc1cccnc1)C(=O)O; Cit = NC(=O)NCCC[C@H](N)C(=O)O; NH(3-hydroxypropyl) = OCCCN*; Suc = O=C(CCC(=O)[*:2])[*:1]; Tle = CC(C)(C)[C@H](N)C(=O)O
result_type: pIC50
Would you please state pIC50, meaning minus log10 of the concentration in mol/L, as a bare number?

Incoming: Entry CC(C)[C@H](NC(=O)[C@H](C)NC(=O)[C@H](CC(N)=O)NC(=O)[C@H](Cc1ccc(-c2ccccc2)cc1)NC(=O)CCC(=O)O)C(N)=O [Compound 36] (Suc-[Bip]NAV-NH2) : reported pIC50 = ?
Outgoing: 5.55

Incoming: For the molecule CC(C)[C@H](NC(=O)[C@H](CO)NC(=O)[C@H](CC(N)=O)NC(=O)[C@H](Cc1ccc2ccccc2c1)NC(=O)[C@@H](N)CC(=O)O)C(=O)NCC(N)=O [Compound 21] (H-D[2Nal]NSVG-NH2) , what pIC50 is on record?
Outgoing: 6.47

Incoming: Which value of pIC50 has been reported for CC(C)[C@H](NC(=O)[C@H](CO)NC(=O)[C@H](CC(N)=O)NC(=O)[C@H](Cc1cccnc1)NC(=O)[C@@H](N)CC(=O)O)C(=O)NCC(=O)NCCCO [Compound 18] (H-D[3Pal]NSVG-{NH(3-hydroxypropyl)}) in the records?
Outgoing: 4.60

Incoming: Field request: pIC50 | item: C[C@H](NC(=O)[C@H](CC(N)=O)NC(=O)[C@H](Cc1ccc2ccccc2c1)NC(=O)CCC(=O)O)C(=O)NCC(C)(C)C
Outgoing: 5.94

Incoming: Look at this molecule and give its reported pIC50. CC(C)[C@H](NC(=O)[C@H](CO)NC(=O)[C@H](CC(N)=O)NC(=O)[C@@H](Cc1ccc2ccccc2c1)NC(=O)[C@@H](N)CC(=O)O)C(=O)NCC(=O)NCCCO [Compound 19] (H-D[d2Nal]NSVG-{NH(3-hydroxypropyl)})
Outgoing: 4.60

Incoming: Query: pIC50; subject: C[C@H](NC(=O)[C@H](CC(N)=O)NC(=O)[C@H](Cc1ccc2ccccc2c1)NC(=O)CCC(=O)O)C(=O)N1CCCC(C)(C)C1
Outgoing: 5.09

Incoming: Fill in: pIC50 of CC(C)[C@H](NC(=O)[C@H](CO)NC(=O)[C@H](CC(N)=O)NC(=O)[C@@H]1[C@H](c2ccccc2)CCN1C(=O)[C@@H](N)CC(=O)O)C(=O)NCC(=O)NCCCO [Compound 16] (H-D[X2]NSVG-{NH(3-hydroxypropyl)}) is ___
Outgoing: 5.37

Incoming: Fill in the blank: the reported pIC50 of CC(C)[C@H](NC(=O)[C@H](CC(=O)O)NC(=O)[C@H](CC(N)=O)NC(=O)[C@H](Cc1ccc2ccccc2c1)NC(=O)[C@@H](N)CC(=O)O)C(=O)NCC(=O)NCCCO [Compound 3] (H-D[2Nal]NDVG-{NH(3-hydroxypropyl)}) is ____.
Outgoing: 6.29

Incoming: Which pIC50 is listed for CC(C)[C@H](NC(=O)[C@H](CO)NC(=O)[C@H](CC(N)=O)NC(=O)[C@H](Cc1ccc2ccccc2c1)NC(=O)[C@@H](N)CC(=O)O)C(N)=O [Compound 22] (H-D[2Nal]NSV-NH2) ?
Outgoing: 6.74

Incoming: I am curious: what pIC50 value has been reported for CC(C)[C@H](NC(=O)[C@H](CO)NC(=O)[C@H](CC(N)=O)NC(=O)[C@H](Cc1ccc2ccccc2c1)NC(=O)[C@H](CC(=O)O)NC(=O)[C@@H](N)CCCNC(N)=O)C(=O)NCC(=O)NCCCO [Compound 27] (H-[Cit]D[2Nal]NSVG-{NH(3-hydroxypropyl)}) ?
Outgoing: 6.36

Incoming: Using the record for CC(C)[C@H](NC(=O)[C@H](CO)NC(=O)[C@H](CC(N)=O)NC(=O)[C@H](Cc1ccc2ccccc2c1)NC(=O)[C@H](CC(=O)O)NC(=O)[C@@H](N)CCCNC(=N)N)C(=O)NCC(=O)NCCCO [Compound 28] (H-RD[2Nal]NSVG-{NH(3-hydroxypropyl)}) , report its pIC50.
Outgoing: 6.82

Incoming: Consider the molecule shown here: CC(C)[C@H](NC(=O)[C@H](CO)NC(=O)[C@H](CC(N)=O)NC(=O)[C@H](Cc1ccc2ccccc2c1)NC(=O)[C@H](CC(=O)O)NC(=O)[C@@H](N)CCCCN)C(=O)NCC(=O)NCCCO [Compound 29] (H-KD[2Nal]NSVG-{NH(3-hydroxypropyl)}) What is its recorded pIC50?
Outgoing: 6.62

Incoming: Look at this molecule and give its reported pIC50. CC(C)[C@H](NC(=O)[C@H](C)NC(=O)[C@H](CC(N)=O)NC(=O)[C@H](Cc1ccc2ccccc2c1)NC(=O)CCC(=O)O)C(N)=O [Compound 31] (Suc-[2Nal]NAV-NH2)
Outgoing: 6.72

Incoming: Request the reported pIC50 associated with CC(C)[C@@H](CO)NC(=O)[C@H](C)NC(=O)[C@H](CC(N)=O)NC(=O)[C@H](Cc1ccc2ccccc2c1)NC(=O)CCC(=O)O
Outgoing: 6.59

Incoming: Which pIC50 reading was recorded for the molecule C[C@H](NC(=O)[C@H](CC(N)=O)NC(=O)[C@H](Cc1ccc2ccccc2c1)NC(=O)CCC(=O)O)C(=O)N[C@H](C(N)=O)C(C)(C)C [Compound 32] (Suc-[2Nal]NA[Tle]-NH2) ?
Outgoing: 6.77

Incoming: Which pIC50 is reported for this molecule? CC(C)[C@H](NC(=O)[C@H](C)NC(=O)[C@H](CC(N)=O)NC(=O)[C@H](Cc1ccc(-c2ccccc2)cc1)NC(=O)[C@@H](N)CC(=O)O)C(=O)NCC(=O)NCCCO [Compound 14] (H-D[Bip]NAVG-{NH(3-hydroxypropyl)})
Outgoing: 6.03

Incoming: Query (molecule): CC[C@H](C)[C@H](NC(=O)[C@@H](N)CC(N)=O)C(=O)N[C@@H](CC(=O)O)C(=O)N1CCC[C@H]1C(=O)N[C@@H](CC(N)=O)C(=O)N[C@@H](C)C(=O)N[C@H](C(=O)NCC(=O)NCCCO)C(C)C [Compound 1, reference compound] (H-NIDPNAVG-{NH(3-hydroxypropyl)}) ; field requested: pIC50
Outgoing: 5.41

All values here come from patent US6365572B1.
